Tested on: Vesicular stomatitis virus
ASSAY_SUMMARY: microbe, parasite or virus in culture
Format: cell-based
MEASUREMENT_CONDITIONS: E6SM, read-out: Minimum inhibitory concentration Vesicular stomatitis virus
EXPERIMENTAL_READOUT: EC50

Known results for compounds:
| COMPOUND | EC50 |
| --- | --- |
| NC(=O)c1ncn(C2O[C@H](CO)[C@@H](O)[C@H]2O)n1 (some centres unmarked) [Ribavirin] | 20 µg/mL |
| CCc1cn([C@@H]2CO[C@H](CO)[C@@H](O)C2)c(=O)[nH]c1=O [Compound 23] | > 200 µg/mL |
| O=c1[nH]c(=O)n([C@H]2C[C@H](O)[C@@H](CO)O2)cc1/C=C/Br [BVDU, E-5-(2-bromovinyl)-2'-deoxyuridine] | > 200 µg/mL |
| Nc1ncnc2c1ncn2C[C@H](O)CO [(S)-DHPA, (S)-9-(2,3-dihydroxypropyl)-adenine] | 20 µg/mL |

Alright, here's another compound for you.
Form entry - test system: Vesicular stomatitis virus; read-out: EC50; compound: Nc1nccc2c1ncn2[C@@H]1C[C@H](CO)[C@@H](O)[C@H]1O (relative stereo) [C-c^3 Ado, carbocyl 3-deaza adenosine]
0.2 µg/mL
